Test system: Aldehyde dehydrogenase, mitochondrial (Mesocricetus auratus)
Method: Accumulation of 5 HIAL in isolated Hamster Liver Mitochondria at 0.9 uM.
Parameter: Control. Scope: all listed entries.
Number only, in %; omit the unit.

Some molecules with known Control results, for comparison:
>>> test_result("O=c1c(-c2ccc(O)cc2)coc2cc(OCC(O)CO)ccc12 (stereo unspecified)")
97.5
>>> test_result("O=C(O)CCCCCCCCCOc1ccc2c(=O)c(-c3ccc(O)cc3)coc2c1")
233
>>> test_result("O=C(O)CCCCCCOc1ccc2c(=O)c(-c3ccc(O)cc3)coc2c1")
265

Challenge: Entry O=c1c(-c2ccc(O)cc2)coc2cc(OCCC3OCCCO3)ccc12 : reported Control = ?
Response given: 176

Challenge: Entry to check: O=c1c(-c2ccc(O)cc2)coc2cc(OCCCCBr)ccc12
Response given: 116

Challenge: Entry to check: O=c1c(-c2ccc(O)cc2)coc2cc(OCCCBr)ccc12
Response given: 57.8

* * *

Parameter: Suppression. Scope: all listed entries.
System: Syrian golden hamster
Method: Suppression of Hamster ethanol intake by 0.07 mmol o.d. i.p.
Format: functional, Mesocricetus auratus
Number only, in %; omit the unit.

Some molecules with known Suppression results, for comparison:
>>> test_result("O=C(O)CCCCCCCCCOc1ccc2c(=O)c(-c3ccc(O)cc3)coc2c1")
84
>>> test_result("O=C(O)CCCCCCOc1ccc2c(=O)c(-c3ccc(O)cc3)coc2c1")
69
>>> test_result("O=c1c(-c2ccc(O)cc2)coc2cc(OCCC3OCCCO3)ccc12")
32
>>> test_result("O=C(O)CCCCCOc1ccc2c(=O)c(-c3ccc(O)cc3)coc2c1")
69
>>> test_result("C=CCOc1ccc2c(=O)c(-c3ccc(O)cc3)coc2c1")
0

Next molecule, please.
Challenge: Entry CCOc1ccc2c(=O)c(-c3ccc(O)cc3)coc2c1 : reported Suppression = ?
Response given: 0

* * *

Method: Evaluated for Pharmacokinetic property: Area under the curve
Assay type: ADME
Set-up: concentration or dose not given beside the values
Parameter: AUC. Scope: all listed entries.
Answer shape: numeric part, then the unit.

Some compounds with known AUC results, for comparison:
>>> test_result("O=c1c(-c2ccc(O)cc2)coc2cc(OCCCCBr)ccc12")
"68 nM hr ml"
>>> test_result("CCOc1ccc2c(=O)c(-c3ccc(O)cc3)coc2c1")
"38 nM hr ml"
>>> test_result("O=C(O)CCCCCOc1ccc2c(=O)c(-c3ccc(O)cc3)coc2c1")
"77 nM hr ml"
>>> test_result("O=c1c(-c2ccc(O)cc2)coc2cc(O)ccc12")
"130 nM hr ml"
>>> test_result("O=c1cc(-c2ccccc2)oc2c(O)c(O)ccc12 [7,8-DIHYDROXYFLAVONE]")
"111 nM hr ml"

Next compound, please.
Challenge: Entry O=c1c(-c2ccc(O)cc2)coc2cc(OCC(O)CO)ccc12 (stereo unspecified) : reported AUC = ?
Response given: 141 nM hr ml

* * *

Method: Evaluated for time required to reach maximum concentration in plasma
Format: ADME
Parameter: Tmax. Scope: all listed entries.
Number only, in min; omit the unit.

Challenge: Entry O=c1cc(-c2ccccc2)oc2c(O)c(O)ccc12 [7,8-DIHYDROXYFLAVONE] : reported Tmax = ?
Response given: 30

Challenge: Entry to check: O=c1c(-c2ccc(O)cc2)coc2cc(OCC(O)CO)ccc12 (stereo unspecified)
Response given: 30

Challenge: Entry to check: O=C(O)CCCCCCCCCCOc1ccc2c(=O)c(-c3ccc(O)cc3)coc2c1
Response given: 30

Challenge: Entry to check: O=c1c(-c2ccc(O)cc2)coc2cc(OCCC3OCCCO3)ccc12
Response given: 30

Challenge: Entry to check: O=c1c(-c2ccc(O)cc2)coc2cc(O[C@@H]3O[C@H](CO)[C@@H](O)[C@H](O)[C@H]3O)ccc12
Response given: 60

Challenge: Entry to check: O=C(O)CCCCCCOc1ccc2c(=O)c(-c3ccc(O)cc3)coc2c1
Response given: 30

FYI, the data here is from ChEMBL document CHEMBL1133504.
